test system: Escherichia coli; test: Evaluation of Beta decanoyl thioester dehydrase inactivation for the compound was determined as percent enzyme activity remaining; parameters: concentration or dose not given beside the values
endpoint: Activity

structure_string=CCCCCCC=C=CC(=O)C=[N+]=[N-] val=0%
structure_string=CCCCCCCCCC(=O)CBr val=89%
structure_string=CCCCCC/C=C/CC(=O)C=[N+]=[N-] val=100%
structure_string=CCCCCCC#CCC(=O)CCl val=0%
structure_string=CCCCCC/C=C/CC(=O)CCl val=100%
structure_string=CCCCCCC#CCC(=O)C=[N+]=[N-] val=0%
structure_string=CCCCCCCCCC(=O)CCl val=99%
structure_string=CCCCCCCCCC(=O)C=[N+]=[N-] val=97%

These data points were gathered from ChEMBL document CHEMBL1126361.
